melting point listing for selected compounds.

[in] Entry NC(=S)c1cnc2ccccn12 : reported melting point = ?
[out] 214 to 216 °C

[in] Entry COc1ccc(C(C)=CC(=O)O)cc1 : reported melting point = ?
[out] 108 to 110 °C

[in] Entry Cc1cc(Br)cc2cc(C(=O)C(C)C)oc12 : reported melting point = ?
[out] 69 to 71 °C

[in] Entry NC(=O)c1cc(CCO)c(C(F)(F)F)[nH]c1=O : reported melting point = ?
[out] 230 to 232 °C

[in] Entry CSCC(=O)Nc1ccc(O)cc1 : reported melting point = ?
[out] 107 to 109 °C

Continuing:
[in] Entry NC(CSCc1cccc2ccccc12)C(=O)O (centres undefined) : reported melting point = ?
[out] 199 to 201 °C

[in] Entry O=C(NCC(F)(F)F)c1ccc(Br)cc1 : reported melting point = ?
[out] 119 to 121 °C

[in] Entry c1cn2c(n1)NCCC2 : reported melting point = ?
[out] 104 to 106 °C

[in] Entry O=c1[nH]nc(-c2ccccc2)cc1C(F)(F)F : reported melting point = ?
[out] 184 to 186 °C

[in] Entry O=C(O)C1(C(F)(F)F)CCN(Cc2ccccc2)C1 (centres undefined) : reported melting point = ?
[out] 210 to 212 °C

---

melting point listing for selected molecules.

[in] Entry CCc1cc(=O)c2ccccc2[nH]1 : reported melting point = ?
[out] 174 to 176 °C

[in] Entry Nc1cc2c(=O)[nH]cnc2cc1F : reported melting point = ?
[out] 319 to 321 °C

[in] Entry CC1(C)CC(=O)c2ccc(O)cc2O1 : reported melting point = ?
[out] 168 to 170 °C

[in] Entry Nc1cc(Cl)c(NC(=O)c2cnccn2)c(Cl)c1 : reported melting point = ?
[out] 195 to 197 °C

[in] Entry Cc1cccc(-c2nnc(S)o2)c1 : reported melting point = ?
[out] 157 to 161 °C

[in] Entry OCc1nccn1CC(F)(F)F : reported melting point = ?
[out] 89 to 91 °C

[in] Entry COC(=O)c1sc(N)nc1C : reported melting point = ?
[out] 171 to 174 °C

[in] Entry CNC(=O)NC(=O)CCl : reported melting point = ?
[out] 155 to 157 °C

[in] Entry N#CC1=C(N)Oc2ccccc2C1 : reported melting point = ?
[out] 143 to 145 °C

[in] Entry N#Cc1ccccc1-c1ccccc1C(=O)O : reported melting point = ?
[out] 168 to 170 °C

Continuing:
[in] Entry CC(C)(C)CNC(=O)c1ccc(C(=O)O)cc1 : reported melting point = ?
[out] 201 to 203 °C

[in] Entry Cc1cc(Cl)cc2cc(C#N)oc12 : reported melting point = ?
[out] 113 to 115 °C

[in] Entry O=C(O)C1CCN(Cc2ccc(Cl)s2)CC1 : reported melting point = ?
[out] 173 to 175 °C

[in] Entry Cc1n[nH]c(C)c1CCC(=O)O : reported melting point = ?
[out] 169 to 171 °C

[in] Entry O=C(O)C(O)C1CC1 (configuration not stated) : reported melting point = ?
[out] 66 to 68 °C

[in] Entry CCCc1nnc(N)s1 : reported melting point = ?
[out] 198 to 202 °C
